- study_system: hCB1 (Homo sapiens, UniProt P21554)
- Sequence (P21554 whole entry): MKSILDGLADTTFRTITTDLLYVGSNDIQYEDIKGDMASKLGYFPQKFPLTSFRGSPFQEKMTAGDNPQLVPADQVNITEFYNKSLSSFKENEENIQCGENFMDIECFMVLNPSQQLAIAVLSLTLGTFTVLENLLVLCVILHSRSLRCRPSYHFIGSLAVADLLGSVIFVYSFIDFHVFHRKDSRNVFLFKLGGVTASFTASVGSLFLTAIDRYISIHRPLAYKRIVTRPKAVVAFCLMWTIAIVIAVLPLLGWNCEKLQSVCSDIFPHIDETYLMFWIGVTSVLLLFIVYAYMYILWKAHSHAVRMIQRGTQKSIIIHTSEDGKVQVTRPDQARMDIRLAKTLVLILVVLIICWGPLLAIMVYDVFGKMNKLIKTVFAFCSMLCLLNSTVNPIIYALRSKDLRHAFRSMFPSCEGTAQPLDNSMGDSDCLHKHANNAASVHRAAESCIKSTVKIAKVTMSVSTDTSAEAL
- measurement_notes: bioSensAll ebBRET signaling profiling, hCB1
- Type: cell-based
- Design: host or cells: HEK293SL cells, transient PEI transfection
- condition: Gi1 biosensor; Log [Compound] (M) -10.5529
Below, each entry is listed with its recorded Gi1 hCB1 response.
The answer should be a number; do not append a unit.

Some solved cases for reference:
compound	quantitative_result
COC(=O)[C@@H]1[C@@H]2CCC[C@@H]2CN1C(=O)c1cc(C)n(-c2cccc(Cl)c2)n1 (racemic)	-7.5988
Cc1cc(C(=O)N2CC3(CCC3)[C@@H]2[C@H]2CCCO2)nn1-c1cccc(C(F)(F)F)c1 (single isomer, unassigned)	4.689
Cc1cc(C(=O)N2CC3(CCC3)[C@H]2[C@@H]2CCCO2)nn1-c1cccc(C(F)(F)F)c1	4.89

Give a short answer stating reported Gi1 hCB1 response for Cc1cc(C(=O)N2CC3(CCC3)[C@@H]2[C@@H]2CCCO2)nn1-c1cccc(C(F)(F)F)c1 .
5.808
